B1: EHEE_rd3_0053 (parent)
chain: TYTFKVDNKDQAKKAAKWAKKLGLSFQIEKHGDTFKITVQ

# Variants of: B1
# Experiment notes: folding stability dG (cDNA display proteolysis); higher = more stable
# Condition notes: PBS, room temperature
Entry flag: MET if folding stability dG reaches 2 kcal/mol; NOT MET if it does not.

Would you please look over these solved cases?
Mutations	Class
A19E	NOT MET
F35M	NOT MET
V6N	NOT MET
S25N	MET
V39G	NOT MET
H31F	MET

Task item: Record N8Y ; criterion: folding stability dG no lower than 2 kcal/mol. Met?
Reply: NOT MET

Task item: Check if folding stability dG >= 2 kcal/mol (inclusive). Item: G32Q
Reply: NOT MET
